- MEASURED TARGET: human recombinant renin (Homo sapiens)
- PROTOCOL SUMMARY: Renin IC50, QFRET (quenched fluorescence resonance energy transfer) assay
- MEASUREMENT CONTEXT: FRET (quenched fluorescence resonance energy transfer) assay
READOUT KIND: pIC50
Answers are plain numbers, as −log10 of the molar value.

molecule="COCCCc1cc(CN(C(=O)[C@H]2CNCC[C@]2(OCc2cnn[nH]2)c2ccc(F)c(F)c2)C2CC2)cc(OCCOC)c1 [Example 51]" measured_target="human recombinant renin (Homo sapiens)" number=8.41
molecule="COCCCc1cc(CN(C(=O)[C@H]2CNCC[C@]2(O)c2cccnc2)C2CC2)cc(OCCOC)c1 (racemic) [Example 2]" measured_target="human recombinant renin (Homo sapiens)" number=6.85
molecule="COCCc1ccc(Cl)c(CN(C(=O)[C@H]2CNCC[C@]2(OCC(O)CO)c2ccc(F)c(F)c2)C2CC2)c1 (stereo partly shown) [Example 54]" measured_target="human recombinant renin (Homo sapiens)" number=8.62
molecule="COCCCc1cc(CN(C(=O)[C@H]2CNCC[C@]2(OC)c2ccc(F)c(F)c2)C2CC2)cc(OCCOC)c1 (racemic) [Example 35]" measured_target="human recombinant renin (Homo sapiens)" number=9.00
molecule="COCCCc1cc(CN(C(=O)[C@H]2CNCC[C@]2(OCc2ccc(F)cc2)c2ccc(F)c(F)c2)C2CC2)cc(OCCOC)c1 [Example 48]" measured_target="human recombinant renin (Homo sapiens)" number=8.96
molecule="COCCCc1cc(CN(C(=O)[C@H]2CNCC[C@]2(O)c2ccn(C)c(=O)c2)C2CC2)cc(OCCOC)c1 (racemic) [Example 23]" measured_target="human recombinant renin (Homo sapiens)" number=7.12

Now turn to the next molecule.
Exam item: Recall the recorded pIC50 for COCCCc1cc(CN(C(=O)[C@H]2CNCC[C@]2(OCCOC)c2ccc(F)c(F)c2)C2CC2)cc(OCCOC)c1 [Example 49] with human recombinant renin (Homo sapiens) and state it.
Marked response: 8.57

* * *

- MEASURED TARGET: renin in human plasma (Homo sapiens, UniProt P00797)
- Sequence (P00797 67-406): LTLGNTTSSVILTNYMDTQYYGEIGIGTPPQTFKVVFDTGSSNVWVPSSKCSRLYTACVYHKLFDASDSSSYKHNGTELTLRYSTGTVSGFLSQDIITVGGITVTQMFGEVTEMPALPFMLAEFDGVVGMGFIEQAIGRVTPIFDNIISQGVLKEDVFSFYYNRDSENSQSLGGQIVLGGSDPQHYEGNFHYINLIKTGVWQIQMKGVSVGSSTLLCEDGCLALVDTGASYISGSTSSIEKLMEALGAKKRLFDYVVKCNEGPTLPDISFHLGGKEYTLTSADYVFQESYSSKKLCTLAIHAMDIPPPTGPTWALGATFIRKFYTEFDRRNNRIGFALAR
- PROTOCOL SUMMARY: Inhibition of renin in human plasma
- MEASUREMENT CONTEXT: human plasma assay
READOUT KIND: IC50 (µM)
Answers are plain numbers, in µM.

For orientation, consider the following solved cases.
compound="COCCCc1cc(CN(C(=O)[C@H]2CNCC[C@]2(O)c2cccnc2)C2CC2)cc(OCCOC)c1 (racemic)" readout_kind=IC50 number=0.28
compound=COCCCc1cc(CN(C(=O)[C@H]2CNCC[C@]2(OCCOC)c2ccc(F)c(F)c2)C2CC2)cc(OCCOC)c1 readout_kind=IC50 number=0.011
compound="COCCCc1cc(CN(C(=O)[C@H]2CNCC[C@]2(O)c2ccn(C)c(=O)c2)C2CC2)cc(OCCOC)c1 (racemic)" readout_kind=IC50 number=0.136
compound=COCCCc1cc(CN(C(=O)[C@H]2CNCC[C@]2(OCc2cnn[nH]2)c2ccc(F)c(F)c2)C2CC2)cc(OCCOC)c1 readout_kind=IC50 number=0.021
compound="COCCCc1cc(CN(C(=O)[C@H]2CNCC[C@]2(OC)c2ccc(F)c(F)c2)C2CC2)cc(OCCOC)c1 (racemic)" readout_kind=IC50 number=0.0047

Each compound below has a recorded value; state its IC50.
1. COCCc1ccc(Cl)c(CN(C(=O)[C@H]2CNCC[C@]2(OCC(O)CO)c2ccc(F)c(F)c2)C2CC2)c1 (stereo partly shown)
2. COCCCc1cc(CN(C(=O)[C@H]2CNCC[C@]2(OCc2ccc(F)cc2)c2ccc(F)c(F)c2)C2CC2)cc(OCCOC)c1

Marked response:
1: 0.0048; 2: 0.061
